- Target under test: Estrogen receptor (Homo sapiens)
- Test protocol: qHTS assay to identify small molecule antagonists of the estrogen receptor alpha (ER-alpha) signaling pathway using the BG1 cell line in the presence of 0.1 nM 17-beta-estradiol (AID 1259244); also: nearly all actives have a fitted effect of over 50% in size
- Applied conditions: VM7Luc4E2 (BG1) ERE-luciferase, antagonist mode, 0.1 nM E2, 22 h; series mostly up to 92.4 µM
Records with an inconclusive call do not appear. Activity calls are given as the source filed them. Calls follow the shape of the dose curve; as a rule, active = well fitted inhibition curve with a large enough effect in the repeat runs; inconclusive = weak or mixed curves; inactive = no such curve, though single readings can be large or run the other way.
Respond using exactly one of the listed classes: true (1) = active, false (0) = inactive

Study these solved cases before continuing.
> print(dat)
                                    molecule                 target.under.test   category
 1                        Brc1cc(Br)cc(Br)c1  Estrogen receptor (Homo sapiens)  false (0)
 2  CC(C)(c1ccc(Oc2ccc(N)cc2)cc1)c1ccc(Oc2ccc(N)cc2)cc1  Estrogen receptor (Homo sapiens)   true (1)
 3                   Cc1ccc2sc3cccc(C)c3c2c1  Estrogen receptor (Homo sapiens)  false (0)
 4                CCC(=O)OC/C=C(\C)CCC=C(C)C  Estrogen receptor (Homo sapiens)  false (0)
 5                 CC1=CC[C@@H](C(C)(C)O)CC1  Estrogen receptor (Homo sapiens)  false (0)
 6                             O=c1cc[nH]cc1  Estrogen receptor (Homo sapiens)  false (0)
 7    O=C1C=CC(=O)N1c1cccc(N2C(=O)C=CC2=O)c1  Estrogen receptor (Homo sapiens)   true (1)
 8                        [Cl][Sc]([Cl])[Cl]  Estrogen receptor (Homo sapiens)  false (0)
 9          CC(=O)Nc1ccc(N=Nc2cc(C)ccc2O)cc1  Estrogen receptor (Homo sapiens)  false (0)
10             CC1(C)[C@H]2CC[C@]1(C)C(=O)C2  Estrogen receptor (Homo sapiens)  false (0)

Would you mind telling me which call this test gave Oc1cccc2c(O)cccc12 ?
true (1)

Continue with c1ccc(-c2ccc(C(c3ccccc3)n3ccnc3)cc2)cc1 (stereo unspecified)
false (0)

Continue with O=C1OC(O)C(C(Cl)Cl)=C1Cl (stereo unspecified)
false (0)

Continue with Cc1ccc(C=O)cc1
false (0)

Continue with [Cl][Dy]([Cl])[Cl]
false (0)
